Experiment: qHTS for Inhibitors of human tyrosyl-DNA phosphodiesterase 1 (TDP1): qHTS in cells in absence of CPT; also: nearly all actives have a fitted effect of over 55% in size
Conditions: DT40 Tdp1-/- hTDP1 cells, no CPT, ATP luminescence, 48 h
Hit rate of the full screen: of about 420,000 compounds, about 64,000 (15%) were called active. Not shown: some 27% with an inconclusive outcome. Calls follow the shape of the dose curve; as a rule, active = well fitted inhibition curve with a large enough effect; inconclusive = small, poorly fitted or top-dose-only effect; inactive = flat fitted curve, though single readings scatter. The list is a sample of the results.
Just give me one of these, please: label 1 for active, label 0 for inactive

Known results for compounds:
compound="O=C1NC(c2ccccc2)CCC1(Cl)Cl (centres undefined)" assigned_label="label 0"
compound="OC(CNC1CCCC1)COc1ccc(F)cc1 (centres undefined)" assigned_label="label 0"
compound="CC1CCCCC1NCC(=O)Nc1ccccc1C(=O)Nc1ccccc1 (centres undefined)" assigned_label="label 1"
compound="CCC(C)c1ccc(O)c(/C=N/O)c1 (centres undefined)" assigned_label="label 0"
compound="C=CCOC(=O)C1=C(C)OC(N)=C(C#N)C1c1ccc(F)cc1 (centres undefined)" assigned_label="label 1"

Now, please, on to the next compound.
Exercise: Which outcome was entered for the compound CCN(CC)CCCNC(=S)N(CCO)Cc1cc2cc3c(cc2[nH]c1=O)OCO3 in this test?
Key: label 0
